The measurements presented in this section are drawn from the RNAGym collection of RNA variant scans (doi:10.7554/elife.80360).

B1: Twister Ribozyme (parent)
chain: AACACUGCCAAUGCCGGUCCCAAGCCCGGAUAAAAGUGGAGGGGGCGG

- Variants of: B1
- protocol_details: self-cleavage, relative activity (ratio to wild type); higher = more cleavage; co-transcriptional
Each entry gets False if its self-cleavage stays under 0.2, and True if its self-cleavage is 0.2 or above.

>>> df
    variant_descriptor  label_value
 0           G17A C27A         True
 1           G16A A23U         True
 2           C19U G29A         True
 3            A2C A33U        False
 4            C9G G41A        False
 5           G17C G41A        False
 6           C21G A32G        False
 7           A30U C46A         True
 8           A10U C20U         True
 9           C25A A40U        False
10           C27G A40G        False
